Target or test system: T1, recombinant human IL-6 (human, UniProt P05231 30-212)
T1 construct: Flowed in solution over the captured antibodies
T1 sequence (P05231 30-212 limits assumed): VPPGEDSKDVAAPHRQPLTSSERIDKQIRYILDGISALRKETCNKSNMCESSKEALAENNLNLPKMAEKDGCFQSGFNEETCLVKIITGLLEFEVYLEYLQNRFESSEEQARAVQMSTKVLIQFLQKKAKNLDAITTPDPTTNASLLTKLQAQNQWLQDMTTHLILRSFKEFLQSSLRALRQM
Method: SPR (Biacore), supernatant IgG on Protein A, 25 C
Lab note: compare kon against 500000 M⁻¹ s⁻¹. Equal or greater, write rule met. Smaller, write rule not met.

binder="anti-IL-6 antibody, heavy chain T28A, light chain WT (antibody, IgG1, V domains shown, Full IgG1 tested; V domains derived as in m2) VH: EVQLVESGGGLVQPGGSLRLSCAASGFAFSPFAMSWVRQAPGKGLEWVAKISPGGSWTYYSDTVTGRFTFSLDTSKSTAYLQMNSLRAEDTAVYYCARQLWGYYALDIWGQGTLVTVSS VL: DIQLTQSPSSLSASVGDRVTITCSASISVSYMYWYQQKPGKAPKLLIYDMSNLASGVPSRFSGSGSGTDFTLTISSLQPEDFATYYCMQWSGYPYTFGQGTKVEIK" label_class="rule not met"
binder="anti-IL-6 antibody, heavy chain T63Q, light chain WT (antibody, IgG1, V domains shown, Full IgG1 tested; V domains derived as in m2) VH: EVQLVESGGGLVQPGGSLRLSCAASGFTFSPFAMSWVRQAPGKGLEWVAKISPGGSWTYYSDQVTGRFTFSLDTSKSTAYLQMNSLRAEDTAVYYCARQLWGYYALDIWGQGTLVTVSS VL: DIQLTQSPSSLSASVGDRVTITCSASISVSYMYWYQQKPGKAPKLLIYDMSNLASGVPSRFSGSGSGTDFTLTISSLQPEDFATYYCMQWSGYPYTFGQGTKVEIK" label_class="rule not met"
binder="anti-IL-6 antibody, heavy chain I51R, light chain WT (antibody, IgG1, V domains shown, Full IgG1 tested; V domains derived as in m2) VH: EVQLVESGGGLVQPGGSLRLSCAASGFTFSPFAMSWVRQAPGKGLEWVAKRSPGGSWTYYSDTVTGRFTFSLDTSKSTAYLQMNSLRAEDTAVYYCARQLWGYYALDIWGQGTLVTVSS VL: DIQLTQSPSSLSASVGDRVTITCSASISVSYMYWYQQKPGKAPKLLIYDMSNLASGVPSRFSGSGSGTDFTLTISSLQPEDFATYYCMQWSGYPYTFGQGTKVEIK" label_class="rule not met"
binder="anti-IL-6 antibody, heavy chain S61R, light chain WT (antibody, IgG1, V domains shown, Full IgG1 tested; V domains derived as in m2) VH: EVQLVESGGGLVQPGGSLRLSCAASGFTFSPFAMSWVRQAPGKGLEWVAKISPGGSWTYYRDTVTGRFTFSLDTSKSTAYLQMNSLRAEDTAVYYCARQLWGYYALDIWGQGTLVTVSS VL: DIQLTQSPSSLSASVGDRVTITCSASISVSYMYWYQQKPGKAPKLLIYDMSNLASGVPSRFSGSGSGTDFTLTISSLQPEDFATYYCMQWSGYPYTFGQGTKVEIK" label_class="rule not met"
binder="anti-IL-6 antibody, heavy chain G66D, light chain WT (antibody, IgG1, V domains shown, Full IgG1 tested) VH: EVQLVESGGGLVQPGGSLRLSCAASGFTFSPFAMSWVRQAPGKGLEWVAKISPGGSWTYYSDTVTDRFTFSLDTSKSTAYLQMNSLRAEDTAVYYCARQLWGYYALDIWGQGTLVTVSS VL: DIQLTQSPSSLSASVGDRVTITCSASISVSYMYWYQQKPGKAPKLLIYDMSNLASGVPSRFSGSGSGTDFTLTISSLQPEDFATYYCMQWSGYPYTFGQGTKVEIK" label_class="rule met"
binder="anti-IL-6 antibody, heavy chain A49T, light chain WT (antibody, IgG1, V domains shown, Full IgG1 tested; V domains derived as in m2) VH: EVQLVESGGGLVQPGGSLRLSCAASGFTFSPFAMSWVRQAPGKGLEWVTKISPGGSWTYYSDTVTGRFTFSLDTSKSTAYLQMNSLRAEDTAVYYCARQLWGYYALDIWGQGTLVTVSS VL: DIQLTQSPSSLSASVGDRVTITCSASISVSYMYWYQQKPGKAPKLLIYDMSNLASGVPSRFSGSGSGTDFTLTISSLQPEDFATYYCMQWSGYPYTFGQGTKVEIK" label_class="rule not met"
binder="anti-IL-6 antibody, heavy chain Y103E, light chain WT (antibody, IgG1, V domains shown, Full IgG1 tested; V domains derived as in m2) VH: EVQLVESGGGLVQPGGSLRLSCAASGFTFSPFAMSWVRQAPGKGLEWVAKISPGGSWTYYSDTVTGRFTFSLDTSKSTAYLQMNSLRAEDTAVYYCARQLWGEYALDIWGQGTLVTVSS VL: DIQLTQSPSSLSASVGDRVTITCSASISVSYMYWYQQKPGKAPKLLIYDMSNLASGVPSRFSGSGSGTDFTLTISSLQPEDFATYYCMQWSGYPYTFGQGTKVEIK" label_class="rule met"
binder="anti-IL-6 antibody, heavy chain V48Q, light chain WT (antibody, IgG1, V domains shown, Full IgG1 tested; V domains derived as in m2) VH: EVQLVESGGGLVQPGGSLRLSCAASGFTFSPFAMSWVRQAPGKGLEWQAKISPGGSWTYYSDTVTGRFTFSLDTSKSTAYLQMNSLRAEDTAVYYCARQLWGYYALDIWGQGTLVTVSS VL: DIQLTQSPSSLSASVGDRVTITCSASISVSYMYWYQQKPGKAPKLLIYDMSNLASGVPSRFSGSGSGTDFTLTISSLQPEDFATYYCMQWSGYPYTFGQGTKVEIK" label_class="rule met"
binder="anti-IL-6 antibody, heavy chain T28E, light chain WT (antibody, IgG1, V domains shown, Full IgG1 tested; V domains derived as in m2) VH: EVQLVESGGGLVQPGGSLRLSCAASGFEFSPFAMSWVRQAPGKGLEWVAKISPGGSWTYYSDTVTGRFTFSLDTSKSTAYLQMNSLRAEDTAVYYCARQLWGYYALDIWGQGTLVTVSS VL: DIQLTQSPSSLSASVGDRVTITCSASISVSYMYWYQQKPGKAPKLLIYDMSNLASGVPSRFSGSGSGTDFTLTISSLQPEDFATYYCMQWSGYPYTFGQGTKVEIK" label_class="rule not met"

Source listed as patent US20240209076A1.
